# testedTarget: Omicron spike protein (Severe acute respiratory syndrome coronavirus 2, UniProt P0DTC2, E484A/G339D/G446S/G496S/K417N/N440K/N501Y/Q493R/Q498R/S371L/S373P/S375F/S477N/T478K/Y505H)
# Format: binding, SARS-CoV-2 Omicron variant (B.1.1.529 BA.1)
# conditionNotes: 1 µM
Measured remaining activity % of omicron spike proteins by item
Please respond with the number in % and leave the unit unwritten.

{"molecule": "CC(C)(O/N=C(\\C(=O)N[C@@H]1C(=O)N2C(C(=O)[O-])=C(C[n+]3ccccc3)CS[C@H]12)c1csc(N)n1)C(=O)O [Ceftazidime, ceftazidime, reference compound]", "unitString": "%", "reportedResult": 34}

Consider the molecule shown here: O=C(Cn1cc(CSc2nc3ccccc3n2Cc2cn(CC(=O)NNC(=S)Nc3ccccc3)nn2)nn1)NNC(=S)Nc1ccccc1 What is its recorded remaining activity % of omicron spike proteins?
8

How about this molecule: Cc1ccc2nc(NC(=O)Cn3cc(CN4C(=O)C(=O)c5ccccc54)nn3)sc2c1
59

How about this molecule: Cc1onc(NS(=O)(=O)c2ccc(-n3cc(CSc4nc5ccccc5n4Cc4cn(-c5ccc(S(=O)(=O)Nc6noc(C)c6C)cc5)nn4)nn3)cc2)c1C
2

How about this molecule: S=c1[nH]nc(Cn2cc(CSc3nc4ccccc4n3Cc3cn(Cc4n[nH]c(=S)n4-c4ccccc4)nn3)nn2)n1-c1ccccc1
10

How about this molecule: O=C(Cn1cc(CSc2nc3ccccc3n2Cc2cn(CC(=O)NNC(=S)Nc3ccc(F)cc3)nn2)nn1)NNC(=S)Nc1ccc(F)cc1
16

How about this molecule: Nn1c(Cn2cc(CSc3nc4ccccc4n3Cc3cn(Cc4n[nH]c(=S)n4N)nn3)nn2)n[nH]c1=S
30
